Test target: Amine oxidase [flavin-containing] B (Bos taurus)
Sequence (P56560 whole entry): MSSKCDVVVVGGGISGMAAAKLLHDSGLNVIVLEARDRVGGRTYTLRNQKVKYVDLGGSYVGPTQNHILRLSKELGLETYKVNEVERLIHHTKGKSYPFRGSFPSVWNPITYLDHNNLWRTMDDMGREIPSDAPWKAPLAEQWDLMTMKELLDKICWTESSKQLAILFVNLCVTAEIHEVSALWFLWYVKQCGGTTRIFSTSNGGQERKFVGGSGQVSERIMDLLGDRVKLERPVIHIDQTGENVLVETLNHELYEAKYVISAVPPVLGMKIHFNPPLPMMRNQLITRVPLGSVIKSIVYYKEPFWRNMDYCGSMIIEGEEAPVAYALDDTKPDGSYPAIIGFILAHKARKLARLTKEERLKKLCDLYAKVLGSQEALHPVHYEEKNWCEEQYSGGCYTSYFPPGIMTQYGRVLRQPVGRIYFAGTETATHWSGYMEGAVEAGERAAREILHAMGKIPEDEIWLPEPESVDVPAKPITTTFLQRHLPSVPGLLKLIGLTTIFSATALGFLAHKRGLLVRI
Readout name: Ki (µM)
Give bare numbers, in µM.

# example entries with known answers
>>> result("CN1CCC2C(=Cc3ccccc32)C1 (stereo not drawn)")
65
>>> result("CN1CCc2c([nH]c3ccccc23)C1")
400

Okay, next one:
Problem: Can you share its Ki? I mean this compound: CN1CCC2=C(Cc3ccccc32)C1
Solution: 75
